# Method Description: yeast display, Sf9 membrane polyspecificity reagent, FACS + sequencing; frameworks hold sequencing errors
Experimental Readout: polyreactivity (PSR sort gate)

{"columns": ["Sequence Input", "Experimental Readout", "Value Reported"],
 "data": [
  ["QVQLVESGGGLVQAGGSLRLSCAGSGRTFQYYAMGCYRQAPGKEMELVAGITGGGSTYYADSVKGRFTISRDNAKNTVYLQMNSLKPEDTAVYYCAADRSYYGYGYWGQGTQVTVSS", "polyreactivity (PSR sort gate)", "low polyreactivity"],
  ["QVQLVESGGGLVQAGGSLRLSCAASGFIFRRNAMGWYRQAPGKERELVASIRSGGSTKYADSVKGRFTISRDNAKNTVYLQMTSLKPEDTAVYYCNADDPGYAVPWYWFKYDYWGQGTQVTVSS", "polyreactivity (PSR sort gate)", "low polyreactivity"]
]}

// data source = the nanobody polyreactivity screen of Harvey et al. (2022)
